Reported Kd values for the following binders.
Molecular target: T1, AahII toxin of Androctonus australis hector (Androctonus australis hector, UniProt P01484 20-83)
T1 construct: mature; also called Aahll
T1 sequence: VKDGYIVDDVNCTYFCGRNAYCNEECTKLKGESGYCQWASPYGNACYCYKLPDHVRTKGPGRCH
Assay: SPR (BIAcore), AahII immobilised on CM5 chip, Nb in mobile phase
value.kind: Kd

binder | value.kind | obs.value
NbAahII20 (VHH, Purified from E. coli periplasm with His6; also called NbAahIKO (I); cluster I) VHH: QVQLQESGGGLVQPGGSLRLSCTASGFDFSRYVMSWVRQAPGKDFEWISGIMPLSSAGTTYADAVKGRFTISRDNAKNTLYLQLNNLKTEDTAIYYCAKGVYTTYIGGARGQGTQVTVSS | Kd | 0.26 nM
NbAahII41 (VHH, also called cluster I) VHH: QVQLVESGGGSVQAGGSLRLSCAASGFDFSIYVMSWVRQAPGKGLEWISGIMPSGQTTYADAVKGRFTISRDNAKNTLYLQLNSLKTEDTAIYYCAKGVYTKYVGGARGQGTQVTVSS | Kd | 2.31 nM
NbAahII05 (VHH, also called cluster G) VHH: QVQLQESGGGSVQAGGSLRLSCAASGYTCTKFNMGWYRQAPGKQREFVASIRRDSTIYYGDSVKGRFTISQDNAKNMVYLQMTSLKPEDSAMYYCSTRCLTSSVPYWGQGTQVTVSS | Kd | 0.67 nM
NbAahII08 (VHH, also called cluster F) VHH: DVQLVESGGGSVQAGGSLRLSCAASGDSYSNYYMAWFRQAPGKEREGVAHINRSGRITLYADSVKGRFTMSRDNAKNTVYLQMNSLKPEDTAIYYCAAGVRTHMPPLASYGFDYWGQGTQVTVSS | Kd | 0.12 nM
